assay_summary: in vivo
test_context: both, Sprague-Dawley, rat, po, 10 mg/kg
property: Tmax (h)
Express it in h; write the number only.

Inquiry: Return reported Tmax; argument: C=C[C@@H]1C[C@]1(NC(=O)[C@@H]1C[C@@H]2CN1C(=O)[C@H](C1CCCCC1)NC(=O)[C@@H](NC(=O)OC(C)(C)C)COC/C=C/c1cc3c(nccc3cc1OC)O2)C(=O)NS(=O)(=O)C1CC1
Reply text: 6.3

====

system_under_test: NS3 enzyme, genotype 1b HCV (HCV NS3/4A protease) (Hepatitis C virus genotype 1b)
Sequence (Q9WMX2 1027-1657): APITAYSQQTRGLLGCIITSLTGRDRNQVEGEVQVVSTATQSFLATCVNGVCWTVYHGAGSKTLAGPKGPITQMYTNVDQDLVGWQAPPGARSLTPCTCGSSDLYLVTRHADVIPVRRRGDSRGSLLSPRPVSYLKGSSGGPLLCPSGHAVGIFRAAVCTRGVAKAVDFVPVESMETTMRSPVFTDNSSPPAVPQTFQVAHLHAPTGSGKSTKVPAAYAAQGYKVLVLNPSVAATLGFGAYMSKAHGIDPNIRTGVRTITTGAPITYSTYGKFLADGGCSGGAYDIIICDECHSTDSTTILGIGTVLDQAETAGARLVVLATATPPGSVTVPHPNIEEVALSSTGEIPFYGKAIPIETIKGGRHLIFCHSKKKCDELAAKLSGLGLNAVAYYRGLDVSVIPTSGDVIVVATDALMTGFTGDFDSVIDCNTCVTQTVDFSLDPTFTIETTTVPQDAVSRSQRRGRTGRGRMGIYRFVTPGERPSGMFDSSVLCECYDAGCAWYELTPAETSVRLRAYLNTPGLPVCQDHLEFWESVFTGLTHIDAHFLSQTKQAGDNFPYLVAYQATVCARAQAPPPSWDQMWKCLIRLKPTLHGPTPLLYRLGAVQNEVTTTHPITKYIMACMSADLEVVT
Sequence (Q9WMX2 1658-1711): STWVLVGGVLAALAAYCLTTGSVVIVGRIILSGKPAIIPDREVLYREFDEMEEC
assay_summary: biochemical
test_context: NS3 enzyme, genotype 1b HCV, in vitro; read-out: IC50
property: IC50 (nM)
Response body: numeric value in nM, unit text excluded.

Inquiry: GET /values?readout=IC50&item= C=C[C@@H]1C[C@]1(NC(=O)[C@@H]1C[C@@H]2CN1C(=O)[C@H](C1CCCCC1)NC(=O)OCC(C)(C)CCCc1cc3c(nccc3cc1OC)O2)C(=O)NS(=O)(=O)C1CC1 [MK-1220]
Reply text: 11

====

assay_summary: in vivo
test_context: both, Sprague-Dawley, rat, po, 2.5 mg/kg, t1/2
property: half-life (h)
Give the quantity in h, number only.

Inquiry: Look up half-life for this compound: C=C[C@@H]1C[C@]1(NC(=O)[C@@H]1C[C@@H]2CN1C(=O)[C@H](C1CCCCC1)NC(=O)[C@@H](NC(=O)OC(C)(C)C)COC/C=C/c1cc3c(nccc3cc1OC)O2)C(=O)NS(=O)(=O)C1CC1 [GP205]
Reply text: 12.4

====

assay_summary: in vivo
test_context: both, Sprague-Dawley, rat, po, 10 mg/kg
property: AUC(0-inf) (µg·h/mL)
Please respond with the number in µg·h/mL and leave the unit unwritten.

Inquiry: Consider the compound C=C[C@@H]1C[C@]1(NC(=O)[C@@H]1C[C@@H]2CN1C(=O)[C@H](C1CCCCC1)NC(=O)[C@@H](NC(=O)OC(C)(C)C)COC/C=C/c1cc3c(nccc3cc1OC)O2)C(=O)NS(=O)(=O)C1CC1 and give its measured AUC(0-inf).
Reply text: 205

====

assay_summary: in vivo
test_context: both, Sprague-Dawley, rat, po, 5 mg/kg
property: AUC (µg·h/mL)
Hi! Could you send only the number? It should be in µg·h/mL, unit omitted.

Inquiry: Could you tell me which AUC is on file for C=C[C@@H]1C[C@]1(NC(=O)[C@@H]1C[C@@H]2CN1C(=O)[C@H](C1CCCCC1)NC(=O)[C@@H](NC(=O)OC(C)(C)C)COC/C=C/c1cc3c(nccc3cc1OC)O2)C(=O)NS(=O)(=O)C1CC1 [GP205] ?
Reply text: 122

====

assay_summary: in vivo
test_context: both, Sprague-Dawley, rat, iv, 1 mg/kg
property: AUC(0-inf) (ng·h/mL)
Provide only the numeric value, understood in ng·h/mL.

Inquiry: Field request: AUC(0-inf) | item: C=C[C@@H]1C[C@]1(NC(=O)[C@@H]1C[C@@H]2CN1C(=O)[C@H](C1CCCCC1)NC(=O)[C@@H](NC(=O)OC(C)(C)C)COC/C=C/c1cc3c(nccc3cc1OC)O2)C(=O)NS(=O)(=O)C1CC1
Reply text: 75200

====

assay_summary: in vivo
test_context: both, Sprague-Dawley, rat, iv, 1 mg/kg
property: half-life (h)
Field format: number, assumed h, no unit text.

Inquiry: Using the record for C=C[C@@H]1C[C@]1(NC(=O)[C@@H]1C[C@@H]2CN1C(=O)[C@H](C1CCCCC1)NC(=O)[C@@H](NC(=O)OC(C)(C)C)COC/C=C/c1cc3c(nccc3cc1OC)O2)C(=O)NS(=O)(=O)C1CC1 , report its half-life.
Reply text: 16.3

====

assay_summary: in vivo
test_context: both, Sprague-Dawley, rat, po, 2.5 mg/kg
property: AUC(0-inf) (ng·h/mL)
Your answer should be a plain number; it is taken to be in ng·h/mL.

Inquiry: Requested read-out: AUC(0-inf). Entry: C=C[C@@H]1C[C@]1(NC(=O)[C@@H]1C[C@@H]2CN1C(=O)[C@H](C1CCCCC1)NC(=O)[C@@H](NC(=O)OC(C)(C)C)COC/C=C/c1cc3c(nccc3cc1OC)O2)C(=O)NS(=O)(=O)C1CC1
Reply text: 70100

====

system_under_test: NS3 enzyme, genotype 1b HCV (HCV NS3/4A protease) (Hepatitis C virus genotype 1b)
assay_summary: biochemical
Each record here notes measured IC50.
Could you kindly put the unit after your number?

smiles_repr: CCC[C@H](NC(=O)[C@@H]1[C@H]2CCC[C@H]2CN1C(=O)[C@@H](NC(=O)[C@@H](NC(=O)c1cnccn1)C1CCCCC1)C(C)(C)C)C(=O)C(=O)NC1CC1
property: IC50
result_value: 95 nM

Inquiry: Returns the measured IC50 for the input compound. Input: C=C[C@@H]1C[C@]1(NC(=O)[C@@H]1C[C@@H]2CN1C(=O)[C@H](C1CCCCC1)NC(=O)[C@@H](NC(=O)OC(C)(C)C)COC/C=C/c1cc3c(nccc3cc1OC)O2)C(=O)NS(=O)(=O)C1CC1
Reply text: 4 nM

====

assay_summary: in vivo
test_context: Sprague-Dawley, rat, po, 2.5 mg/kg
property: concentration at 1 h (ng/mL)
Hi! Could you send only the number? It should be in ng/mL, unit omitted.

Inquiry: Entry under review: C=C[C@@H]1C[C@]1(NC(=O)[C@@H]1C[C@@H]2CN1C(=O)[C@H](C1CCCCC1)NC(=O)[C@@H](NC(=O)OC(C)(C)C)COC/C=C/c1cc3c(nccc3cc1OC)O2)C(=O)NS(=O)(=O)C1CC1 [GP205] . Reported concentration at 1 h?
Reply text: 716

====

assay_summary: in vivo
test_context: both, Sprague-Dawley, rat, po, 10 mg/kg
property: AUC (µg·h/mL)
The reply should contain only the number, in µg·h/mL.

Inquiry: Query (molecule): C=C[C@@H]1C[C@]1(NC(=O)[C@@H]1C[C@@H]2CN1C(=O)[C@H](C1CCCCC1)NC(=O)[C@@H](NC(=O)OC(C)(C)C)COC/C=C/c1cc3c(nccc3cc1OC)O2)C(=O)NS(=O)(=O)C1CC1 [GP205] ; field requested: AUC
Reply text: 176

====

assay_summary: in vivo
test_context: both, Sprague-Dawley, rat, iv, 1 mg/kg
property: MRT (h)
Hi! Could you send only the number? It should be in h, unit omitted.

Inquiry: Which measured MRT value corresponds to C=C[C@@H]1C[C@]1(NC(=O)[C@@H]1C[C@@H]2CN1C(=O)[C@H](C1CCCCC1)NC(=O)[C@@H](NC(=O)OC(C)(C)C)COC/C=C/c1cc3c(nccc3cc1OC)O2)C(=O)NS(=O)(=O)C1CC1 ?
Reply text: 20.8

====

assay_summary: in vivo
test_context: both, Sprague-Dawley, rat, po, 10 mg/kg, Elimination half time (t1/2)
property: half-life

Inquiry: # query: half-life of entry C=C[C@@H]1C[C@]1(NC(=O)[C@@H]1C[C@@H]2CN1C(=O)[C@H](C1CCCCC1)NC(=O)[C@@H](NC(=O)OC(C)(C)C)COC/C=C/c1cc3c(nccc3cc1OC)O2)C(=O)NS(=O)(=O)C1CC1 [GP205]
Reply text: 12.4 to 17.2 h

====

assay_summary: in vivo
test_context: both, Sprague-Dawley, rat, po, 5 mg/kg
property: Tmax (h)
Output spec: scalar in h, unitless text.

Inquiry: Look at this compound and give its reported Tmax. C=C[C@@H]1C[C@]1(NC(=O)[C@@H]1C[C@@H]2CN1C(=O)[C@H](C1CCCCC1)NC(=O)[C@@H](NC(=O)OC(C)(C)C)COC/C=C/c1cc3c(nccc3cc1OC)O2)C(=O)NS(=O)(=O)C1CC1
Reply text: 6.3

====

assay_summary: in vivo
test_context: both, Sprague-Dawley, rat, po, 2.5 mg/kg
property: MRT (h)
# number only, unit h dropped from output

Inquiry: What value of MRT has been recorded for this entry: C=C[C@@H]1C[C@]1(NC(=O)[C@@H]1C[C@@H]2CN1C(=O)[C@H](C1CCCCC1)NC(=O)[C@@H](NC(=O)OC(C)(C)C)COC/C=C/c1cc3c(nccc3cc1OC)O2)C(=O)NS(=O)(=O)C1CC1
Reply text: 19.4

====

assay_summary: in vivo
test_context: both, Sprague-Dawley, rat, po, 5 mg/kg
property: AUC(0-inf) (µg·h/mL)
Value expressed in µg·h/mL; do not type the unit.

Inquiry: Return reported AUC(0-inf); argument: C=C[C@@H]1C[C@]1(NC(=O)[C@@H]1C[C@@H]2CN1C(=O)[C@H](C1CCCCC1)NC(=O)[C@@H](NC(=O)OC(C)(C)C)COC/C=C/c1cc3c(nccc3cc1OC)O2)C(=O)NS(=O)(=O)C1CC1
Reply text: 135
